Source of measurements: patent US20060199841A1

Test system: GYKI 20039 induced tremor
Assay: Tremor test in mice (GYKI 20039 induced tremor)
Type: in vivo
Settings: Mus musculus, ip, 15-minute pre-treatment; dose causing 50% tremor inhibition; read-out: Tremor inhibitory effect ED50
# reported ED50; entries follow
The answer is to be given in mg/kg; state only the numeric part.

> print(dat)
                                   molecule  readoutvalue
1   CC12CC3CC(C)(C1)CC(N)(C3)C2 [Memantine]          20.5
2                  Clc1ccc2nsnc2c1NC1=NCCN1          0.73
3  NCC(CC(=O)O)c1ccc(Cl)cc1 (stereo not shown)           9.1

// query ED50 value for entry Cc1ccccc1OCC(O)CO (stereo not shown)
81.5
